inhibition for assorted compounds
Assay: 384-well plate pilot, post-Golgi transport modulator project, inhibition of yeast transport mutant growth (AID 636)
Conditions: absorbance 615 nm, about 18 h, active compounds read high
readout: inhibition (%)

[[record]]
compound = "Cc1ccc(-c2nn(C)c(=O)c3ccccc23)cc1S(=O)(=O)N1CCOCC1"
readout = "inhibition"
units_label = "%"
assay_result = -5.07

[[record]]
compound = "COc1ccc(-c2ccc(Nc3ccc(S(=O)(=O)N4CCCC4)cc3)nn2)cc1OC"
readout = "inhibition"
units_label = "%"
assay_result = -6.8

[[record]]
compound = "CNC(=O)CC(C(=O)O)c1ccc(OCC(C)C)cc1 (stereo not drawn)"
readout = "inhibition"
units_label = "%"
assay_result = -2.11

[[record]]
compound = "COc1ccc(C(=O)Nc2ccc(S(=O)(=O)NC(C)=O)cc2)cc1"
readout = "inhibition"
units_label = "%"
assay_result = -4.13

[[record]]
compound = "O=S(=O)(Nc1ccc(Cc2ccncc2)cc1)N1CCCC1"
readout = "inhibition"
units_label = "%"
assay_result = -3.92

[[record]]
compound = "COCCCNC(=O)CCc1nc2cccnc2n1Cc1ccc(OC)cc1"
readout = "inhibition"
units_label = "%"
assay_result = -7.03

[[record]]
compound = "Cc1ccc(S(=O)(=O)NCC(=O)N(CC(=O)NCc2ccccc2)CC2CCCO2)cc1 (stereo not drawn)"
readout = "inhibition"
units_label = "%"
assay_result = -3.65

[[record]]
compound = "CCOC(=O)N1CCC(NC(=O)CCc2c(C)nc3c(c(C)nn3C(C)(C)C)c2C)CC1"
readout = "inhibition"
units_label = "%"
assay_result = -4.61

[[record]]
compound = "O=C(OCC#CCSc1nnc(-c2ccccc2)o1)c1cccs1"
readout = "inhibition"
units_label = "%"
assay_result = -6.13

[[record]]
compound = "Cc1ccc(S(=O)(=O)N2CCCC(C(=O)NC3=NCCS3)C2)cc1 (stereo not drawn)"
readout = "inhibition"
units_label = "%"
assay_result = -6.67

[[record]]
compound = "N#Cc1nc(-c2ccco2)oc1N1CCN(c2cccc(Cl)c2)CC1"
readout = "inhibition"
units_label = "%"
assay_result = -4.13

[[record]]
compound = "Cc1cc(C)cc(NC(=O)C2CCCN(c3nccc(C)n3)C2)c1 (stereo not drawn)"
readout = "inhibition"
units_label = "%"
assay_result = 0.91

[[record]]
compound = "COC(=O)c1ccccc1NC(=O)CSc1nnc(-c2ccncc2)o1"
readout = "inhibition"
units_label = "%"
assay_result = -4.67

[[record]]
compound = "CC(=O)Nc1ccccc1-c1nc2ccc(C(=O)N3CCN(c4ccccc4)CC3)cc2[nH]c1=O"
readout = "inhibition"
units_label = "%"
assay_result = -1.33

[[record]]
compound = "CCC(=O)Nc1c2c(nn1-c1ccccc1C)CSC2"
readout = "inhibition"
units_label = "%"
assay_result = -4.42

[[record]]
compound = "O=C(CN1CCCN(S(=O)(=O)c2ccc(Br)cc2)CC1)Nc1ccc2cn[nH]c2c1"
readout = "inhibition"
units_label = "%"
assay_result = -2.37

[[record]]
compound = "CCCn1c(N2CCN(CC(=O)Nc3ccc4c(c3)OCCO4)CC2)nc2ccccc21"
readout = "inhibition"
units_label = "%"
assay_result = -6.18

[[record]]
compound = "CCOCCCNC(=O)C1CCN(C(=O)Nc2ccc(Cl)cc2)CC1"
readout = "inhibition"
units_label = "%"
assay_result = -5

[[record]]
compound = "Cc1onc(-c2ccccc2)c1C(=O)Nc1ccnn1C1CCCCC1"
readout = "inhibition"
units_label = "%"
assay_result = -5.6

[[record]]
compound = "Cc1nc2cccc(C(=O)NC3CCCCC3)c2o1"
readout = "inhibition"
units_label = "%"
assay_result = -3.73

[[record]]
compound = "COc1ccc(C(C(C(=O)c2ccco2)N2CCOCC2)N2CCOCC2)cc1 (stereo not drawn)"
readout = "inhibition"
units_label = "%"
assay_result = -6.53

[[record]]
compound = "O=C(OCC#CCSc1nnc(-c2ccncc2)o1)c1cccs1"
readout = "inhibition"
units_label = "%"
assay_result = -4.67

[[record]]
compound = "Cc1c(Cl)cnc(NC(=O)COC(=O)C(NC(=O)c2ccco2)C(C)C)c1Cl (stereo not drawn)"
readout = "inhibition"
units_label = "%"
assay_result = -1.89

[[record]]
compound = "Cc1ccc(-c2cn3nc(C)c(C)nc3n2)cc1"
readout = "inhibition"
units_label = "%"
assay_result = -4.93

[[record]]
compound = "O=C1C(Cl)=C(N2CCCCC2)C(=O)N1c1ccccc1Cl"
readout = "inhibition"
units_label = "%"
assay_result = -2.6

[[record]]
compound = "CC(=O)Nc1ccc(S(=O)(=O)N2CCC(c3nc4ccccc4[nH]3)CC2)cc1"
readout = "inhibition"
units_label = "%"
assay_result = -3.78

[[record]]
compound = "CCn1c2ccccc2c2cc(NC(=O)CSc3nnc(C4CC4)n3Cc3ccco3)ccc21"
readout = "inhibition"
units_label = "%"
assay_result = -6.45

[[record]]
compound = "CC(NC(=O)c1ccco1)C(c1cccs1)N1CCN(c2ccc(F)cc2)CC1 (stereo not drawn)"
readout = "inhibition"
units_label = "%"
assay_result = -4.13

[[record]]
compound = "CSc1nc2c(ccc3ccccc32)o1"
readout = "inhibition"
units_label = "%"
assay_result = -1.32

[[record]]
compound = "O=c1[nH]c2sc3c(c2c2nncn12)CCCC3"
readout = "inhibition"
units_label = "%"
assay_result = -6.16

[[record]]
compound = "CCCC(C(=O)NCc1ccco1)N(C(=O)CNS(=O)(=O)c1ccc(Cl)cc1)C1CCCC1 (stereo not drawn)"
readout = "inhibition"
units_label = "%"
assay_result = -0.13

[[record]]
compound = "CN1CCN(c2oc(COc3ccc(-c4ccccc4)cc3)nc2C#N)CC1"
readout = "inhibition"
units_label = "%"
assay_result = -5.6

[[record]]
compound = "O=C(COC(=O)c1ccc(S(=O)(=O)Nc2ccccc2)cc1)NCCN1C(=O)CSC1=O"
readout = "inhibition"
units_label = "%"
assay_result = -5.07

[[record]]
compound = "CC(=O)Nc1ccc2c(c1)nc(CCNC(=O)c1ccccc1)n2C"
readout = "inhibition"
units_label = "%"
assay_result = -8.36

[[record]]
compound = "O=C1C2CC=C(Cl)CC2C(=O)N1c1ncn[nH]1 (stereo not drawn)"
readout = "inhibition"
units_label = "%"
assay_result = 0.27

[[record]]
compound = "COc1ccc(OC)c(C2C3=C(CCCC3=O)Nc3c2c(=O)n(C)c(=O)n3C)c1 (stereo not drawn)"
readout = "inhibition"
units_label = "%"
assay_result = -2.24

[[record]]
compound = "Cc1ccccc1C1CC(c2ccccc2)Nc2ncnn21 (stereo not drawn)"
readout = "inhibition"
units_label = "%"
assay_result = 1.47

[[record]]
compound = "Cc1nnc(SCC(=O)Nc2ccc(Br)cn2)[nH]c1=O"
readout = "inhibition"
units_label = "%"
assay_result = 1.84

[[record]]
compound = "Cc1ccccc1N1OC2C(=O)N(c3ccc(F)cc3)C(=O)C2C1c1ccccn1 (stereo not drawn)"
readout = "inhibition"
units_label = "%"
assay_result = -5.58

[[record]]
compound = "CCOC(=O)N1CCC(NC(=O)CCN2C(=O)COc3ccccc32)CC1"
readout = "inhibition"
units_label = "%"
assay_result = 0

[[record]]
compound = "COc1cc(OC)cc(OCC(O)Cn2cnc(-c3ccccc3)c2)c1 (stereo not drawn)"
readout = "inhibition"
units_label = "%"
assay_result = 3.64

[[record]]
compound = "CCOC(=O)Cc1nn2c(=O)cc(C)nc2s1"
readout = "inhibition"
units_label = "%"
assay_result = -1.07

[[record]]
compound = "CCOC(=O)C1(C)NC(c2ccc(OC)c(OC)c2)C2C(=O)N(CC)C(=O)C21 (stereo not drawn)"
readout = "inhibition"
units_label = "%"
assay_result = -0.41


###

Listed below: viability values for each entry.
Test: SK-BR-3 cell growth inhibitors, pilot screen, 24 h, human (AID 572);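 note: compound exposure lasted between 18 and 24 h rather than exactly 24 h; 100% = carrier-treated control wells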
Conditions: SK-BR-3 viability, CellTiter-Glo luminescence, at 10 µM, active compounds read low
readout: viability (%)

[[record]]
molecule = "Cc1ccc(N2CCN(C(=O)c3ccccc3Br)CC2)c(C)c1"
units_label = "%"
assay_result = 110

[[record]]
molecule = "COc1cccc(-c2cc(C(=O)NCc3ccc(Cl)cc3)no2)c1"
units_label = "%"
assay_result = 84

[[record]]
molecule = "COC(=O)c1sc(S(=O)(=O)Nc2ccc3cn[nH]c3c2)c(C(=O)OC)c1C"
units_label = "%"
assay_result = 97

[[record]]
molecule = "CCN(CCNC(=O)CS(=O)(=O)Cc1nc(-c2cccc(OC)c2)oc1C)c1ccccc1"
units_label = "%"
assay_result = 97.5

[[record]]
molecule = "CCOC(=O)C1=C(C)OC(N)=C(C#N)C1c1ccoc1 (stereo unspecified)"
units_label = "%"
assay_result = 111

[[record]]
molecule = "NC(=O)CSc1nnc(-c2cnccn2)n1-c1ccccc1"
units_label = "%"
assay_result = 114

